TESTED SYSTEM: hERG (Homo sapiens)
Construct: host or cells: crude membrane suspension
Sequence (Q12809 whole entry): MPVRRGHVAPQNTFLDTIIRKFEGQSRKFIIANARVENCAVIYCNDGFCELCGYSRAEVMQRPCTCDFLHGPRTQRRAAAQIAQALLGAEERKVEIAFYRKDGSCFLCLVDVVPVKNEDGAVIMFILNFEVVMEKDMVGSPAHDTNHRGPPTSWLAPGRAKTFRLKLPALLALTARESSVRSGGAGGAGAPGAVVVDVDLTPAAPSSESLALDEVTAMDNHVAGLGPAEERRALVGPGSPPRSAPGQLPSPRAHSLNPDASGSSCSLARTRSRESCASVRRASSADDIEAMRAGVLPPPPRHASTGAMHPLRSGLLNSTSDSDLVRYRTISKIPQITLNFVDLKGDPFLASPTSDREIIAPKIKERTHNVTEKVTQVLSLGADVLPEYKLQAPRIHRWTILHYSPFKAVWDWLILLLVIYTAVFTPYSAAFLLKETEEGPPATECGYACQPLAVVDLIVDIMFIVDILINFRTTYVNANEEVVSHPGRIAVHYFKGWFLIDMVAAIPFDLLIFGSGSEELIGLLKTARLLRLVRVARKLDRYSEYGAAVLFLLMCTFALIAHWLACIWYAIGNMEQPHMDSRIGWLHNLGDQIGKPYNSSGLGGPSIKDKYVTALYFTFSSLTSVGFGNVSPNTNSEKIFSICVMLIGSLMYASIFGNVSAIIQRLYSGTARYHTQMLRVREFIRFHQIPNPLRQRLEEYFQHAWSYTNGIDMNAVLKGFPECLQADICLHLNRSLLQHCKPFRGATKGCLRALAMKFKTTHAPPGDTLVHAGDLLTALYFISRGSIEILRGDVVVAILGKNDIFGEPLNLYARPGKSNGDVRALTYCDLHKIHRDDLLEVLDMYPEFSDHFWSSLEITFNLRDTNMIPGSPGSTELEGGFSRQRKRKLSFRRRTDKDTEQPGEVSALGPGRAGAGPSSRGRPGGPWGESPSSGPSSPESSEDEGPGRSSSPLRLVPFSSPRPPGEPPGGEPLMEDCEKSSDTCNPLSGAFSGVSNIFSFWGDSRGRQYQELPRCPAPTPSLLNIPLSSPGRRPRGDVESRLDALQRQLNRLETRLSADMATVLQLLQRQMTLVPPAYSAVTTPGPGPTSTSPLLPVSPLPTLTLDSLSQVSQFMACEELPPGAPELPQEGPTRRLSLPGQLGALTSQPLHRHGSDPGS
ASSAY METHOD TEXT: hERG binding assay ([3H] dofetilide displacement)
CONDITION: dofetilide displacement; read-out: HERGdof IC50
Experimental: Compounds of the invention were pipetted into each well of pre-wet 96-well Millipore GF/C filter plates (#MSFCN6B50): 119 μl assay buffer, 1 μl test compound in 100% DMSO (or 100% DMSO only for total binding), 40 μl [3H] dofetilide (12.5 nM, final concentration 2.5 nM; Novartis radioisotope laboratory, East Hanover, N.J., USA, specific activity 15-45 Ci/mmol); 40 μl crude membrane suspension (ca. 15 μg protein). The final concentration of DMSO during the incubation was 0.5%. […]
QUANTITY: pIC50
pIC50 (log units): -log10 of the concentration in mol/L.

> print(dat)
                                   compound        tested.system  quantity  measured.result
1  C[C@H]1C[C@@H](N)C[C@@H](c2ccncc2NC(=O)c2ccc(F)c(-c3c(F)cccc3F)n2)O1 [Example 124]  hERG (Homo sapiens)     pIC50             5.52

# ---- query compound ----
Q) I would be grateful if you could share the reported pIC50 for C[C@H]1C[C@@H](N)C[C@@H](c2ccncc2NC(=O)c2csc(-c3c(F)cccc3F)n2)O1 [Example 123] .
A) 4.92

----------
TESTED SYSTEM: GSK3β (Homo sapiens)
ASSAY METHOD TEXT: GSK3β ATP depletion assay
Format: biochemical
CONDITION: ATP depletion assay; read-out: GSK3b IC50
Each entry below lists one item and its recorded IC50 value.
Respond numerically; units are µM and should not be typed.

Examples with their reported IC50 follow.
> print(dat)
                                   molecule         tested.system  measured.result
1  N[C@@H]1C[C@H](c2ccncc2NC(=O)c2ccc(F)c(-c3c(F)cccc3F)n2)O[C@@H]2CCC[C@H]12 [Example 224]  GSK3β (Homo sapiens)            0.363
2  C[C@@]1(O)[C@@H](N)C[C@@H](c2ccncc2NC(=O)c2nc(-c3ccccc3)cnc2N)OC12CC2 [Example 350]  GSK3β (Homo sapiens)           0.0078

Q) I would be grateful if you could share the reported IC50 for CC(C)[C@H]1O[C@@H](c2ccncc2NC(=O)c2nc(-c3c(F)cccc3F)ncc2N)C[C@@H](N)[C@@H]1O [Example 272] .
A) 1.22

----------
TESTED SYSTEM: UniProtKB P11309
Sequence (P11309 whole entry): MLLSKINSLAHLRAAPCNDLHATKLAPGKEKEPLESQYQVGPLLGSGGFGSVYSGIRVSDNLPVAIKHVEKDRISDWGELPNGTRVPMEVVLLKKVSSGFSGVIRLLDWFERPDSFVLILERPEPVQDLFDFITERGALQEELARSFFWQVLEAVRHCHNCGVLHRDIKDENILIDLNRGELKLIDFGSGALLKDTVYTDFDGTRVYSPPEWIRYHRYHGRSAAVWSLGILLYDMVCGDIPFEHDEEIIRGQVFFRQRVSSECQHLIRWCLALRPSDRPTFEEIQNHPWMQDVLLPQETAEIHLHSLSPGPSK
ASSAY METHOD TEXT: Pim 1 AlphaScreen assay (high ATP)
Assay type: biochemical
CONDITION: read-out: Pim1 IC50
QUANTITY: pIC50
pIC50 (log units): -log10 of the concentration in mol/L.

Examples with their reported pIC50 follow.
> print(dat)
                                   compound  measured.result
1  C[C@@]1(O)[C@@H](N)C[C@@H](c2ccncc2NC(=O)c2ccc(F)c(-c3c(F)cccc3F)n2)O[C@H]1C1CC1             8.73
2  C[C@H]1O[C@@H](c2ccncc2NC(=O)c2nn(Cc3ccccc3)cc2N)C[C@@H](O)[C@]1(C)O             4.90
3  CNC(=O)c1ccc(F)c(-c2nc(C(=O)Nc3cnccc3C3C[C@@H](N)[C@H](O)[C@@H](C(C)C)O3)ccc2F)c1F (stereo in doubt)             9.57
4  C[C@]1(O)[C@H](O)C[C@H](c2ccncc2NC(=O)c2ccc(F)c(-c3c(F)cccc3F)n2)O[C@@H]1C1CC1             8.40
5  COc1cc(NC(=O)c2ccc(F)c(-c3c(F)cccc3F)n2)c([C@H]2C[C@@H](O)[C@H](O)[C@@H](CO)O2)cn1             4.84

# ---- query compound ----
Q) Tell me reported pIC50 for CC1(C)C[C@H](N)C[C@@H](c2ccncc2NC(=O)c2ccc(F)c(-c3c(F)cc(OCCO)cc3F)n2)O1 , tested with UniProtKB P11309.
A) 10.30

----------
TESTED SYSTEM: GSK3β (Homo sapiens, UniProt P49841)
Sequence (P49841 whole entry, species assumed): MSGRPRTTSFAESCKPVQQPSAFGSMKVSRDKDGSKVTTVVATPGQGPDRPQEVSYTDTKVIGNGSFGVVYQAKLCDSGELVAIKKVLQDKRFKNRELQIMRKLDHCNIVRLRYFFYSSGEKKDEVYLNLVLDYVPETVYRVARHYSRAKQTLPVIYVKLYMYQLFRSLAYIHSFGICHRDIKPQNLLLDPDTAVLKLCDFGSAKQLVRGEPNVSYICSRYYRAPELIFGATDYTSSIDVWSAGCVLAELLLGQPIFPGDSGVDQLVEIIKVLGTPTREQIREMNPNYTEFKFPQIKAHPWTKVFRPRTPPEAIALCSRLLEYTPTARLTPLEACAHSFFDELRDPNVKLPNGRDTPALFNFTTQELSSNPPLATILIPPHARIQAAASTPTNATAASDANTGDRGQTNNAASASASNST
ASSAY METHOD TEXT: GSK3β ATP depletion assay
Assay type: biochemical
CONDITION: read-out: GSK3b IC50
QUANTITY: pIC50
pIC50 (log units): -log10 of the concentration in mol/L.

> print(dat)
                                   molecule  measured.result
1  C=C[C@H]1OC(c2ccncc2NC(=O)c2ccnc(-c3c(F)cccc3F)n2)=C[C@@H](O)[C@@H]1O             6.70
2  CC1(C)O[C@H](c2ccncc2NC(=O)c2csc(-c3c(F)cccc3F)n2)C[C@@H](O)[C@H]1O             7.34

Q) I would be grateful if you could share the reported pIC50 for CC1(C)O[C@@H](c2ccncc2NC(=O)c2csc(-c3c(F)cccc3F)n2)C[C@H](O)[C@@H]1O .
A) 8.00

Q) I would be grateful if you could share the reported pIC50 for C[C@H]1O[C@@H](c2ccncc2NC(=O)c2nc(-c3ccccc3)cnc2N)[C@H](F)[C@@H](O)[C@]1(C)O .
A) 9.00

Q) I would be grateful if you could share the reported pIC50 for O=C(Nc1cnccc1[C@@H]1C[C@H](O)[C@]2(O)CCCC[C@@H]2O1)c1ccc(F)c(-c2c(F)cccc2F)n1 .
A) 5.98

Q) I would be grateful if you could share the reported pIC50 for O=C(Nc1cnccc1[C@@H]1C[C@H](O)CC2(CC2)O1)c1ccc(F)c(-c2c(F)cccc2F)n1 .
A) 7.04

Q) I would be grateful if you could share the reported pIC50 for O=C(Nc1cnccc1C1=C[C@@H](O)[C@H](O)[C@@H](CCl)O1)c1ccnc(-c2c(F)cccc2F)n1 .
A) 7.66

Q) I would be grateful if you could share the reported pIC50 for C[C@@H]1O[C@H](c2ccncc2NC(=O)c2ccc(F)c(-c3c(F)cccc3F)n2)C[C@H](O)[C@@]1(C)O (stereo in doubt) .
A) 6.79

Q) I would be grateful if you could share the reported pIC50 for Nc1ccc(-c2c(F)cccc2F)nc1C(=O)Nc1cnccc1[C@H]1C[C@@H](N)[C@@]2(O)CCC[C@H]2O1 .
A) 6.60

Q) I would be grateful if you could share the reported pIC50 for CC[C@H]1O[C@@H](c2ccncc2NC(=O)c2nc(-c3c(F)cccc3F)ncc2N)C[C@@H](O)[C@]1(C)O .
A) 5.99

Q) I would be grateful if you could share the reported pIC50 for CC1(C)O[C@@H](c2ccncc2NC(=O)c2ccc(F)c(-c3c(F)cccc3F)n2)C[C@H](O)[C@@H]1O .
A) 7.06

Q) I would be grateful if you could share the reported pIC50 for O=C(Nc1cnccc1[C@@H]1OCC[C@H](CO)O1)c1ccc(F)c(-c2c(F)cccc2F)n1 .
A) 5.61

Q) I would be grateful if you could share the reported pIC50 for O=C(Nc1cnccc1C1OCCCO1)c1ccc(F)c(-c2c(F)cccc2F)n1 .
A) 5.45

Q) I would be grateful if you could share the reported pIC50 for C[C@@H]1O[C@H](c2ccncc2NC(=O)c2csc(-c3c(F)cccc3F)n2)C[C@H](N)[C@H]1O .
A) 7.19

Q) I would be grateful if you could share the reported pIC50 for CC[C@H]1O[C@@H](c2ccncc2NC(=O)c2nc(-c3nccs3)ccc2N)C[C@@H](O)[C@@H]1O [Example 145] .
A) 5.65

Q) I would be grateful if you could share the reported pIC50 for C[C@H]1O[C@@H](c2ccncc2NC(=O)c2nc(-c3c(F)cccc3F)ncc2N)C[C@@H](O)[C@]1(C)O .
A) 6.46

Q) I would be grateful if you could share the reported pIC50 for CC[C@H]1O[C@@H](c2ccncc2NC(=O)c2csc(-c3c(F)cccc3F)n2)C[C@@H](O)[C@@H]1O .
A) 7.77

----------
Tested on: KMS11 (human myeloma cell line)
ASSAY METHOD TEXT: Cell proliferation assay (CellTiter-Glo), KMS11
Assay type: cell-based
CONDITION: Homo sapiens, KMS-11; KMS11 cells, cell proliferation; read-out: KMS11-Luc EC50
QUANTITY: EC50 (nM)
Respond numerically; units are nM and should not be typed.

Examples with their reported EC50 follow.
> print(dat)
                                   compound                    tested.system  quantity  measured.result
1  Nc1ncc(-c2ccccc2)nc1C(=O)Nc1cnccc1[C@H]1C[C@@H](N)[C@H](O)[C@@H](C2CC2)O1 [Example 346]  KMS11 (human myeloma cell line)      EC50              470
2  CC(C)[C@@H]1C[C@H](N)C[C@H](c2ccncc2NC(=O)c2nc(-c3ccccc3)cnc2N)O1 [Example 291]  KMS11 (human myeloma cell line)      EC50              340
3  N[C@@H]1C[C@H](c2ccncc2NC(=O)c2csc(-c3c(F)cccc3F)n2)O[C@@H]2CCC[C@H]12 [Example 231]  KMS11 (human myeloma cell line)      EC50             5820

Q) I would be grateful if you could share the reported EC50 for CC[C@H]1O[C@@H](c2ccncc2NC(=O)c2nc(-c3ccccc3)cnc2N)C[C@@H](N)[C@@H]1O [Example 343] .
A) 150

Q) I would be grateful if you could share the reported EC50 for CC(C)[C@H]1OC(c2ccncc2NC(=O)c2ccc(F)c(-c3c(F)cc(S(C)(=O)=O)cc3F)n2)C[C@@H](N)[C@@H]1O (stereo in doubt) [Example 305] .
A) 310

Q) I would be grateful if you could share the reported EC50 for CC(C)(C)[C@@H]1O[C@H](c2ccncc2NC(=O)c2nc(-c3ccccc3)cnc2N)C[C@H](N)[C@H]1O [Example 355] .
A) 210

Q) I would be grateful if you could share the reported EC50 for Cc1cc(F)c(-c2nc(C(=O)Nc3cnccc3[C@@H]3C[C@H](N)[C@@H](O)[C@H](C4CC4)O3)ccc2F)c(F)c1 [Example 324] .
A) 4320

Q) I would be grateful if you could share the reported EC50 for CC(C)(C)[C@H]1O[C@@H](c2ccncc2NC(=O)c2nc(-c3ccccc3)cnc2N)C[C@H](N)[C@@H]1O [Example 286] .
A) 1970
